target: [35S]-TBPS binding, rat brain cortical membranes; experiment: Steroid inhibition of TBPS binding ([35S]-TBPS radioligand displacement); conditions: 3 nM [35S]-TBPS, 5 μM GABA
pIC50: −log10 of the molar value.
Provide the recorded pIC50 for the entries that follow.

Ask: I have this molecule here, C[C@H](C(=O)[C@H]1CC[C@H]2[C@@H]3CC[C@H]4C[C@](C)(O)CC[C@]4(C)[C@H]3CC[C@]12C)n1nc2ccccc2n1 , and I need its recorded pIC50.
Result: 7.00 to 7.30

Ask: I have this molecule here, C[C@@]1(O)CC[C@@]2(C)[C@@H](CC[C@@H]3[C@@H]2CC[C@]2(C)[C@@H](C(=O)Cn4nc5ccc(F)cc5n4)CC[C@@H]32)C1 [Compound 246] , and I need its recorded pIC50.
Result: > 8.00

Ask: I have this molecule here, C[C@@]1(O)CC[C@@]2(C)[C@@H](CC[C@@H]3[C@@H]2CC[C@]2(C)[C@@H](C(=O)Cn4nc5ccc(F)cc5n4)CC[C@@H]32)C1 [Compound 245] , and I need its recorded pIC50.
Result: 7.30 to 8.00

Ask: I have this molecule here, C[C@@]1(O)CC[C@@]2(C)[C@@H](CC[C@@H]3[C@@H]2CC[C@]2(C)[C@@H](C(=O)Cn4cc5cc(F)ccc5n4)CC[C@@H]32)C1 , and I need its recorded pIC50.
Result: 7.30 to 8.00

Ask: I have this molecule here, C[C@@]1(O)CC[C@@]2(C)[C@@H](CC[C@@H]3[C@@H]2CC[C@]2(C)[C@@H](C(=O)Cc4cccc(F)c4)CC[C@@H]32)C1 , and I need its recorded pIC50.
Result: 6.30 to 7.00

Ask: I have this molecule here, CN(C)C(=O)c1cnn(CC(=O)[C@H]2CC[C@H]3[C@@H]4CC[C@@H]5C[C@](C)(O)CC[C@]5(C)[C@H]4CC[C@]23C)c1 , and I need its recorded pIC50.
Result: > 8.00

====

target: α1β2γ2 GABAA receptors (Homo sapiens (Human), UniProt P14867+P47870); experiment: Patch clamp electrophysiology (QPatch) of recombinant α1β2γ2 GABAA receptors in LTK cells; type: cell-based; details: 10 μM test article, GABA EC20 = 2 μM, read-out: GABA (α1β2γ2) Qpatch in Ltk, % efficacy at 10 μM
Provide the recorded Emax at 10 µM for the entries that follow.

Ask: I have this compound here, C[C@@]1(O)CC[C@@]2(C)[C@H](CC[C@@H]3[C@@H]2CC[C@]2(C)[C@@H](C(=O)Cn4ccnc4C#N)CC[C@@H]32)C1 , and I need its recorded Emax at 10 µM.
Result: > 500%

Ask: I have this compound here, COC[C@@]1(O)CC[C@@]2(C)[C@@H](CC[C@@H]3[C@@H]2CC[C@]2(C)[C@@H](C(=O)Cn4nc5ccc(Cl)cc5n4)CC[C@@H]32)C1 , and I need its recorded Emax at 10 µM.
Result: 100 to 500%

Ask: I have this compound here, Cc1cnn(CC(=O)[C@H]2CC[C@H]3[C@@H]4CC[C@H]5C[C@](C)(O)CC[C@]5(C)[C@H]4CC[C@]23C)c1 , and I need its recorded Emax at 10 µM.
Result: 100 to 500%

Ask: I have this compound here, COc1cnn(CC(=O)[C@H]2CC[C@H]3[C@@H]4CC[C@H]5C[C@](C)(O)CC[C@]5(C)[C@H]4CC[C@]23C)c1 , and I need its recorded Emax at 10 µM.
Result: 100 to 500%

Ask: I have this compound here, C[C@@]1(O)CC[C@@]2(C)[C@H](CC[C@@H]3[C@@H]2CC[C@]2(C)[C@@H](C(=O)Cn4cc(C(F)(F)F)cn4)CC[C@@H]32)C1 , and I need its recorded Emax at 10 µM.
Result: > 500%

Ask: I have this compound here, C[C@@]1(O)CC[C@@]2(C)[C@@H](CC[C@@H]3[C@@H]2CC[C@]2(C)[C@@H](C(=O)Cn4nc5ccc(Cl)c(F)c5n4)CC[C@@H]32)C1 , and I need its recorded Emax at 10 µM.
Result: 100 to 500%

Ask: I have this compound here, CC(=O)Nc1cnn(CC(=O)[C@H]2CC[C@H]3[C@@H]4CC[C@H]5C[C@](C)(O)CC[C@]5(C)[C@H]4CC[C@]23C)c1 , and I need its recorded Emax at 10 µM.
Result: 100 to 500%

Ask: I have this compound here, CNC(=O)c1cnn(CC(=O)[C@H]2CC[C@H]3[C@@H]4CC[C@H]5C[C@@](O)(COC)CC[C@]5(C)[C@H]4CC[C@]23C)c1 , and I need its recorded Emax at 10 µM.
Result: 10 to 100%

Ask: I have this compound here, C[C@@]1(O)CC[C@@]2(C)[C@@H](CC[C@@H]3[C@@H]2CC[C@]2(C)[C@@H](C(=O)Cn4nc5cccc(F)c5n4)CC[C@@H]32)C1 , and I need its recorded Emax at 10 µM.
Result: 100 to 500%

Ask: I have this compound here, C[C@@]1(O)CC[C@@]2(C)[C@@H](CC[C@H]3[C@@H]4CC[C@H](C(=O)Cn5cc(C#N)cn5)[C@@]4(C)CC(=O)[C@@H]32)C1 , and I need its recorded Emax at 10 µM.
Result: 100 to 500%

Ask: I have this compound here, COc1ccc2c(c1)nnn2CC(=O)[C@H]1CC[C@H]2[C@@H]3CC[C@H]4C[C@](C)(O)CC[C@]4(C)[C@H]3CC[C@]12C , and I need its recorded Emax at 10 µM.
Result: 100 to 500%

Ask: I have this compound here, COC[C@@]1(O)CC[C@@]2(C)[C@@H](CC[C@@H]3[C@@H]2CC[C@]2(C)[C@@H](C(=O)Cn4cnc(C#N)c4)CC[C@@H]32)C1 , and I need its recorded Emax at 10 µM.
Result: > 500%

Ask: I have this compound here, CO[C@H]1C[C@@]2(C)[C@@H](CC[C@@H]3[C@@H]2CC[C@]2(C)[C@@H](C(=O)Cn4nccn4)CC[C@@H]32)C[C@]1(C)O , and I need its recorded Emax at 10 µM.
Result: 100 to 500%
